# System: Botrytis cinerea (B05.10)
# assay.method.text: Resazurin antifungal assay of 180 alpha-factor peptide variants towards Botrytis (Example 2)
# Assay type: cell-based
# condition.parameters: % inhibition of fungal growth, Botrytis conidia, peptide 20 μM, resazurin
Peptide text beside a SMILES is read from it.
For each entry below, report its Inhibition at 20 μM value.

- molecule: "CC[C@H](C)[C@H](NC(=O)[C@H](CCCCN)NC(=O)[C@H](Cc1ccccc1)NC(=O)[C@H](CCC(=O)O)NC(=O)[C@H](CC(C)C)NC(=O)[C@H](CO)NC(=O)[C@H](Cc1c[nH]cn1)NC(=O)[C@@H](N)Cc1c[nH]c2ccccc12)C(=O)NCC(=O)N[C@@H](CCC(N)=O)C(=O)NCC(=O)N[C@@H](CCSC)C(=O)N[C@@H](Cc1ccc(O)cc1)C(=O)O [compound 89] (H-WHSLEFKIGQGMY-OH; N-terminus and C-terminus assumed)"
  Inhibition at 20 μM: "<90%"

-- ask Would you mind telling me what Inhibition at 20 μM value was observed for CSCC[C@H](NC(=O)[C@@H]1CCCN1C(=O)[C@H](C)NC(=O)CNC(=O)[C@H](Cc1c[nH]c2ccccc12)NC(=O)[C@H](CCCCN)NC(=O)[C@H](CC(C)C)NC(=O)[C@@H](NC(=O)[C@@H](NC(=O)[C@H](Cc1c[nH]c2ccccc12)NC(=O)[C@H](Cc1c[nH]cn1)NC(=O)[C@@H](N)CCCCN)C(C)C)[C@@H](C)O)C(=O)N[C@@H](Cc1ccc(O)cc1)C(=O)O [compound 3] (H-KHWVTLKWGAPMY-OH; N-terminus and C-terminus assumed) ?
-- reply 100.61%
